Cited source for all entries: ChEMBL document CHEMBL4052763

Biological target: UniProtKB P30530
Sequence (P30530 whole entry): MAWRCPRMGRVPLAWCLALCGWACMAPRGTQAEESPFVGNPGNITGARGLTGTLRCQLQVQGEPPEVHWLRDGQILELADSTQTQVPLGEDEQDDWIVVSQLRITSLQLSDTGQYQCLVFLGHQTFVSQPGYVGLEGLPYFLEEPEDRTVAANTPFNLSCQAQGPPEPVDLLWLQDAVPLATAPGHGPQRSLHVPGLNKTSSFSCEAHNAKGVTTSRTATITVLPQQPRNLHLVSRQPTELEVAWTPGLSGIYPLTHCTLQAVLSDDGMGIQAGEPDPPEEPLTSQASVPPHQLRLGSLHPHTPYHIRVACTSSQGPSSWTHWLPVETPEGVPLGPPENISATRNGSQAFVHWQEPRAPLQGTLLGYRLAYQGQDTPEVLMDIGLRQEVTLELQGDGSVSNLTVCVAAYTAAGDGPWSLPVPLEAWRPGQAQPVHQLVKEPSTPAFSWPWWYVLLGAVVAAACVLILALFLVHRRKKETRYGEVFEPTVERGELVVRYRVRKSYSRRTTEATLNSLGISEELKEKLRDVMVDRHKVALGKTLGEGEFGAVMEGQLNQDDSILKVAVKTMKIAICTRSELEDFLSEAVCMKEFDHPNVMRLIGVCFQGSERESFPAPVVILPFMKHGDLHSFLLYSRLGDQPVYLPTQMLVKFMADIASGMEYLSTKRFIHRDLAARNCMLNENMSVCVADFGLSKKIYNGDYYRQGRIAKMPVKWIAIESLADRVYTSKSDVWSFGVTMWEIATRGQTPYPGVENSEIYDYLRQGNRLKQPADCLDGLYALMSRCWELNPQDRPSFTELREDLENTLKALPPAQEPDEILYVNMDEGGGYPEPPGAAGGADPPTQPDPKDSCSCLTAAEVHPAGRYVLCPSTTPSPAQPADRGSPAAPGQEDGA
Experiment: Inhibition of Axl in human HeLa cells assessed as reduction in AKT phosphorylation at Ser 473 residues pre-incubated for 1 hr before preclustered anti-Axl antibody stimulation by Western blot analysis
Type: cell-based
READOUT_NAME: EC50 (nM)

Some solved cases for reference:
# COMPOUND, TGT, UNIT_OF_MEASUREMENT, ASSAY_VALUE
data = [
    ("Nc1nc(Nc2ccc(OCCN3CCCC3)c(F)c2)nn1C(=O)c1ccc(N2CCOCC2)cc1", "UniProtKB P30530", "nM", 47),
    ("Cc1csc2c(-n3nc(Nc4ccc(N5CCN(C6CC7CCC6C7)CC5)c(F)c4)nc3N)ncnc12 (racemic)", "UniProtKB P30530", "nM", 62),
    ("COc1cc2ncnc(-n3nc(Nc4ccc(N5CCN(C6CCCCC6)CC5)c(F)c4)nc3N)c2cc1OC", "UniProtKB P30530", "nM", 55),
    ("COc1cc2ncnc(-n3nc(Nc4ccc(C5CCN(C)CC5)cc4)nc3N)c2cc1OC", "UniProtKB P30530", "nM", 16),
]

a. Nc1nc(Nc2ccc(OCCN3CCCC3)cc2)nn1-c1nc(Cl)nc2ccccc12
b. COc1cc2ncnc(-n3nc(Nc4ccc(OC5CCCN(C)C5)cc4)nc3N)c2cc1OC (stereo unspecified)
c. Cc1csc2c(-n3nc(Nc4ccc(N5CCN([C@H]6C[C@@H]7CC[C@H]6C7)CC5)c(Cl)c4)nc3N)nc(Cl)nc12
d. Nc1nc(Nc2ccc(OCCN3CCCC3)c(F)c2)nn1-c1ccccn1
e. CC(C)(C)c1cc2ncnc(-n3nc(Nc4ccc(N5CCN(C6CC7CCC6C7)CC5)c(Cl)c4)nc3N)c2s1 (racemic)
Thanks in advance: please rank these 5 entries by EC50, highest to lowest. Put the labels in the requested order and write them down.
d, c, e, b, a
(d: 334 nM, c: 136 nM, e: 84 nM, b: 52 nM, a: 27 nM)
